Values compiled from patent US9567302B2.

- measured.on: ABHD6 (Mus musculus)
- Sequence (Q8R2Y0 whole entry): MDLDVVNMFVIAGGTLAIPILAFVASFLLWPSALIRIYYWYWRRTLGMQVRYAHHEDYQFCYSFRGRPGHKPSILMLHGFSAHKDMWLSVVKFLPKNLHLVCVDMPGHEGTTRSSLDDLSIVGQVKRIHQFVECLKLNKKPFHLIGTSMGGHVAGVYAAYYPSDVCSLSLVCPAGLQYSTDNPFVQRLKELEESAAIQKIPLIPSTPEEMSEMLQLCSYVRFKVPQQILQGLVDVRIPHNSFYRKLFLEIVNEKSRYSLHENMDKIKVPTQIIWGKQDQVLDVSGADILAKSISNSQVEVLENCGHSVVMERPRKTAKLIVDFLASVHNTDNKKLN
- assay.notes: In vitro competitive ABPP, % inhibition at fixed concentration, ABHD6
- Type: biochemical
- Design: from tissue
- Description: In Vitro Competitive Activity-Based Protein Profiling. Proteomes (mouse brain membrane fraction or cell lysates) (50 μL, 1.0 mg/ml total protein concentration) were preincubated with varying concentrations of inhibitors at 37° C. […] Following gel imaging, serine hydrolase activity was determined by measuring fluorescent intensity of gel bands corresponding to MAGL, ABHD6 and FAAH using ImageJ 1.43u software.
Some compounds, each annotated with its measured inhibition at 1 µM.

Solved cases below.
CC1(C)CN(Cc2ccc(N3CCOCC3)cc2C(F)(F)F)CCN1C(=O)ON1C(=O)CCC1=O :: < 25%
O=C(ON1C(=O)CCC1=O)N1CCN(Cc2ccc(N3CCOCC3)cc2C(F)(F)F)CC1 :: 25 to 75%
CC1(C)CN(Cc2ccc(N3CCOCC3)cc2OC(F)(F)F)CCN1C(=O)ON1C(=O)CCC1=O :: < 25%
Cc1nc(CN2CCN(C(=O)ON3C(=O)CCC3=O)CC2)ccc1-c1ccccc1F :: 25 to 75%
O=C(ON1C(=O)CCC1=O)N1CCN(Cc2cnc3ccccn23)CC1 :: < 25%

Input: Form field: inhibition at 1 µM recorded for CC(C)n1cc(CN2CCN(C(=O)ON3C(=O)CCC3=O)CC2)c(-c2ccccc2)n1 with ABHD6 (Mus musculus) (enter value)
Output: 25 to 75%

Input: // map Cc1cccc(-c2ccc(CN3CCN(C(=O)ON4C(=O)CCC4=O)CC3)c(C)c2)n1 to recorded inhibition at 1 µM (system: ABHD6 (Mus musculus))
Output: 25 to 75%

Input: Item CS(=O)(=O)N1CCN(c2cc(Cl)ccc2CN2CCN(C(=O)ON3C(=O)CCC3=O)CC2)CC1 with ABHD6 (Mus musculus) - inhibition at 1 µM?
Output: 25 to 75%

* * *

- measured.on: UniProtKB O35678
- assay.notes: In vitro competitive activity-based protein profiling (FP-Rh), mouse MAGL
- Assay type: biochemical
- Design: from tissue; host or cells: mouse brain membrane fraction
- experimental.context: Table 1, mouse proteome, 30 min preincubation at 37° C.
A collection of compounds and their measured IC50

Solved cases below.
O=C(ON1C(=O)CCC1=O)N1CCCCC1 [Example 17] :: > 10000 nM
CN1CC(=O)N(OC(=O)N2CCC(CCc3ccc(Cl)cc3)CC2)C1=O [Example 49] :: < 100 nM
O=C1CCC(=O)N1OC(=O)N1CCCCC1Cc1ccccc1 (stereo not shown) [Example 22] :: > 10000 nM

Input: Give its IC50 value. Item: O=C(ON1C(=O)CCC1=O)N1CCC1 [Example 30]
Output: > 10000 nM

Input: So what does the record say about IC50 for CC1CC(=O)N(OC(=O)N2CCN(C(c3ccc(Cl)cc3)c3ccc(Cl)cc3)CC2)C1=O (stereo not shown) [Example 41] ?
Output: < 100 nM

Input: Please give the measured IC50 for this compound: CN(Cc1cccc(-c2ccncc2)c1)C(=O)ON1C(=O)CCC1=O [Example 12]
Output: 1000 to 10000 nM

Input: Recorded IC50 of COc1ccc(N2CCN(C(=O)ON3C(=O)CCC3=O)CC2)cc1 [Example 5] , please.
Output: 1000 to 10000 nM

Input: Record request: IC50 value, item Cc1nc(-c2cccc(CN(C)C(=O)ON3C(=O)CCC3=O)c2)no1 [Example 14]
Output: 1000 to 10000 nM

Input: Quick one: IC50 for O=C(ON1C(=O)CCC1=O)N1CC[C@@H](OCc2ccccc2)C1 [Example 39] ?
Output: > 10000 nM

Input: Which IC50 value is on record for O=C(ON1C(=O)CCC1=O)N1CCCC1 [Example 29] ?
Output: > 10000 nM

* * *

- measured.on: MAGL (Mus musculus)
- Sequence (O35678 whole entry): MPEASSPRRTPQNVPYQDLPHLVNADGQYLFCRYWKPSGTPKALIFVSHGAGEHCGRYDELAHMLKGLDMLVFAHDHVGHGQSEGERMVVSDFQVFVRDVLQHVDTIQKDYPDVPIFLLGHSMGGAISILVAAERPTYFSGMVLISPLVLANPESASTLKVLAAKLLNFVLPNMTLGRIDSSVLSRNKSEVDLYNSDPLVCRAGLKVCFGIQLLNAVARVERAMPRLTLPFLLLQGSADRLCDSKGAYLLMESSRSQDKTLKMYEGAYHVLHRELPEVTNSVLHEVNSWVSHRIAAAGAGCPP
- assay.notes: In vitro competitive ABPP, % inhibition at fixed concentration, MAGL
- Type: biochemical
- Design: from tissue
Below is a list of entries, each paired with its recorded inhibition at 1 µM value.

Solved entries:
CC(C)n1cc(CN2CCN(C(=O)ON3C(=O)CCC3=O)CC2)c(-c2ccccc2Cl)n1 [Example 142] :: 25 to 75%
C[C@H]1CN(Cc2ccc(N3CCOCC3)cc2OC(F)(F)F)CCN1C(=O)ON1C(=O)CCC1=O [Example 90] :: 25 to 75%
O=C(ON1C(=O)CCC1=O)N1CCN(Cc2ccc(Cl)c(C(=O)N3CCOCC3)c2)CC1 [Example 209] :: < 25%
O=C(ON1C(=O)CCC1=O)N1CCN(Cc2ccc(Cl)cc2N2CCC(C(=O)N3CCCC3)CC2)CC1 [Example 116] :: 25 to 75%
C[C@@H]1CN(Cc2ccc(N3CCOCC3)cc2C(F)(F)F)CCN1C(=O)ON1C(=O)CCC1=O [Example 80] :: < 25%

Input: Quick one: inhibition at 1 µM for C[C@@H]1CN(Cc2ccc(N3CCOCC3)cc2Cl)CCN1C(=O)ON1C(=O)CCC1=O [Example 96] ?
Output: < 25%

Input: Please report the recorded inhibition at 1 µM for O=C(ON1C(=O)CCC1=O)N1CCN(Cc2ccc(Cl)c(C(=O)N3CCC3)c2)CC1 [Example 210] .
Output: < 25%

Input: What value of measured inhibition at 1 µM is listed for O=C(ON1C(=O)CCC1=O)N1CCN(Cc2ccc(-c3ccccc3)cc2F)CC1 [Example 164] ?
Output: > 75%

Input: So what's the measured inhibition at 1 µM for this one? Cc1ncccc1-c1ccc(CN2CCN(C(=O)ON3C(=O)CCC3=O)CC2)c(F)c1 [Example 174]
Output: 25 to 75%

Input: What does the record list as inhibition at 1 µM for Cc1cccc(-c2ccc(CN3CCN(C(=O)ON4C(=O)CCC4=O)CC3)c(F)c2)n1 [Example 175] ?
Output: 25 to 75%

Input: I have this compound here, Cc1ccc(C(=O)N2CCCC2)c(CN2CCN(C(=O)ON3C(=O)CCC3=O)CC2)c1 [Example 202] , and I need its recorded inhibition at 1 µM.
Output: < 25%

* * *

- measured.on: UniProtKB O08914
- Sequence (O08914 whole entry): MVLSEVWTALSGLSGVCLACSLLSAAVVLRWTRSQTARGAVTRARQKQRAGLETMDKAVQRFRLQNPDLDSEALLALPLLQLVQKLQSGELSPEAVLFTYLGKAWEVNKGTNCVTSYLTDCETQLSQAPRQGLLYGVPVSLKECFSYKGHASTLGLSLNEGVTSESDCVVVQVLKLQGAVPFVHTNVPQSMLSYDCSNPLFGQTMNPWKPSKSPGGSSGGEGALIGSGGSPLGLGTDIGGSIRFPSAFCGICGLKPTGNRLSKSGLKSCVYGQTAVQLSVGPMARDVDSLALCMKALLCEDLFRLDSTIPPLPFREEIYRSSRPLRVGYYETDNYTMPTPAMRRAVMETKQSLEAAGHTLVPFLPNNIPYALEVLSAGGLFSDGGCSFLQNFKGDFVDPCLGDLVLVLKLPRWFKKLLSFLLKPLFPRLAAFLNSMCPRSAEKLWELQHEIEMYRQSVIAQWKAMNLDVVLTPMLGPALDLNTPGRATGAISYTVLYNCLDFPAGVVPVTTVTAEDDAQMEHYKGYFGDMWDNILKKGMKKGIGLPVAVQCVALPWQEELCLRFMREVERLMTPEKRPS
- assay.notes: In vitro competitive activity-based protein profiling (FP-Rh), mouse FAAH
- Assay type: biochemical
- Set-up: from tissue; host or cells: mouse brain membrane fraction
- experimental.context: Table 2, mouse proteome, 30 min preincubation at 37° C.
- Method: In Vitro Competitive Activity-Based Protein Profiling. Proteomes (mouse brain membrane fraction or cell lysates) (50 μL, 1.0 mg/ml total protein concentration) were preincubated with varying concentrations of inhibitors at 37° C. After 30 min, FP-Rh (1.0 μL, 50 μM in DMSO) was added and the mixture was incubated for another 30 min at 37° C. Reactions were quenched with SDS loading buffer (50 μL—4×) and run on SDS-PAGE.
measured.quantity: IC50

O=C(ON1C(=O)CCC1=O)N1CCN(Cc2cnc3ccc(Cl)cn23)CC1 :: > 10000 nM
Cn1nc(-c2ccccc2)cc1CN1CCN(C(=O)ON2C(=O)CCC2=O)CC1 :: > 10000 nM
Cn1cc(CN2CCN(C(=O)ON3C(=O)CCC3=O)CC2)c(-c2ccccc2)n1 :: > 10000 nM
O=C(ON1C(=O)CCC1=O)N1CCN(Cc2cccc(F)c2N2CCOCC2)CC1 :: > 10000 nM
O=C(ON1C(=O)CCC1=O)N1CCN(Cc2ccc(Cl)cc2N2CCOCC2)CC1 :: 1000 to 10000 nM
O=C(ON1C(=O)CCC1=O)N1CCN(Cc2cccc(N3CCOCC3)c2)CC1 :: > 10000 nM

Input: I am curious: what IC50 value has been reported for Cc1c(CN2CCN(C(=O)ON3C(=O)CCC3=O)CC2)cccc1N1CCCCC1 ?
Output: > 10000 nM

Input: Reported IC50 for Cc1nc(-c2ccccc2)oc1CN1CCN(C(=O)ON2C(=O)CCC2=O)CC1 : what is it?
Output: > 10000 nM

Input: IC50 for O=C(ON1C(=O)CCC1=O)N1CCN(Cc2cccc(Cl)c2N2CCOCC2)CC1 ?
Output: > 10000 nM

Input: For the compound CN(C)C(=O)c1cc(-c2ccccc2)ccc1CN1CCN(C(=O)ON2C(=O)CCC2=O)CC1 , what IC50 is on record?
Output: > 10000 nM

Input: May I ask what IC50 has been recorded for O=C(ON1C(=O)CCC1=O)N1CCN(Cc2cccc(N3CCCCC3)c2)CC1 ?
Output: > 10000 nM

Input: Report IC50 for Cc1c(CN2CCN(C(=O)ON3C(=O)CCC3=O)CC2)cccc1N1CCCC1 please.
Output: > 10000 nM

Input: IC50 lookup needed for Cc1cc(N2CCCC2)ccc1CN1CCN(C(=O)ON2C(=O)CCC2=O)CC1 , thanks.
Output: 1000 to 10000 nM

Input: Tell me the measured IC50 of O=C(ON1C(=O)CCC1=O)N1CCN(Cc2ccc(Cl)cc2N2CCC3(CCOCC3)C2)CC1 , please.
Output: > 10000 nM

Input: Quick check: IC50 of O=C(ON1C(=O)CCC1=O)N1CCN(Cc2ccc(N3CCOCC3)cc2Cl)CC1 ?
Output: > 10000 nM

Input: Data request, read-out IC50, for Cc1nc(N2CCCCC2)sc1CN1CCN(C(=O)ON2C(=O)CCC2=O)CC1
Output: > 10000 nM

Input: Please report the recorded IC50 for O=C(ON1C(=O)CCC1=O)N1CCN(Cc2ccc(N3CCCC3)cc2Cl)CC1 .
Output: 1000 to 10000 nM

Input: Which IC50 value belongs to O=C(ON1C(=O)CCC1=O)N1CCN(Cc2ccc(N3CCCC3)c(F)c2)CC1 ?
Output: > 10000 nM

Input: Using the record for Cc1c(CN2CCN(C(=O)ON3C(=O)CCC3=O)CC2)cccc1N1CCOCC1 , report its IC50.
Output: > 10000 nM

Input: What does the data say about its IC50? Entry: O=C(ON1C(=O)CCC1=O)N1CCN(Cc2cc(Cl)ccc2N2CCCC2)CC1
Output: > 10000 nM

Input: Given the compound CC(=O)NC1CCN(c2cc(Cl)ccc2CN2CCN(C(=O)ON3C(=O)CCC3=O)CC2)C1 (stereo not shown) , what is its reported IC50?
Output: > 10000 nM

Input: Record request: IC50 value, item O=C(ON1C(=O)CCC1=O)N1CCN(Cc2ccc(F)c(N3CCCC3)c2)CC1
Output: > 10000 nM

Input: # IC50 lookup, item COc1ccc(CN2CCN(C(=O)ON3C(=O)CCC3=O)CC2)cc1
Output: 1000 to 10000 nM

Input: Give the measured IC50 of CC(C)c1cc(-c2ccccc2)ccc1CN1CCN(C(=O)ON2C(=O)CCC2=O)CC1 .
Output: > 10000 nM

Input: Tell me the measured IC50 of O=C(ON1C(=O)CCC1=O)N1CCN(Cc2ccc(N3CCOCC3)c(Cl)c2)CC1 , please.
Output: > 10000 nM

Input: Which IC50 value is on record for COC(=O)c1cc(CN2CCN(C(=O)ON3C(=O)CCC3=O)CC2)ccc1N1CCOCC1 ?
Output: > 10000 nM

Input: Which IC50 value is on record for O=C(ON1C(=O)CCC1=O)N1CCN(Cc2c(Cl)cccc2N2CCCC2)CC1 ?
Output: > 10000 nM

Input: I'd like to know its IC50. The compound in question is CC(=O)N1CCN(c2cc(Cl)ccc2CN2CCN(C(=O)ON3C(=O)CCC3=O)CC2)CC1
Output: > 10000 nM
